recorded-metric: melting point

| input-smiles | melting point |
| --- | --- |
| Cc1ccccc1N1CCN(C(=O)c2ccc3n2Cc2ccccc2N(C(=O)c2ccc(C4CCCCC4)cc2)C3)CC1 | 141 to 143 °C |

stdin: Need melting point of CC(=NNC(=O)c1ccc2n1Cc1ccccc1N(C(=O)c1ccc(C3CCCCC3)cc1)C2)N(C)C , thanks.
stdout: 164 to 175 °C

stdin: Given the entry CN(C)/C=C/C(=O)c1ccc2n1Cc1ccccc1N(C(=O)c1ccc(C3CCCCC3)cc1)C2 , report its measured melting point.
stdout: 237 to 240 °C

stdin: So what does the record say about melting point for CN1CCN(C(=O)c2ccc3n2Cc2ccc(C(=O)O)cc2N(C(=O)c2ccc(C4CCCCC4)cc2)C3)CC1 ?
stdout: 195 to 210 °C

###

# inhibition at 0.1 µM annotations
Target: human V2 vasopressin receptor subtype (Homo sapiens)
Assay: Vasopressin binding in CHO cell membranes expressing human vasopressin V2 subtype receptors
Details: 100 nM, [3H]arginine vasopressin
All answers are understood in %, so give the number only.

| compound | value-unit | inhibition at 0.1 µM |
| --- | --- | --- |
| CN(C)CCCN(C)C(=O)c1ccc2n1Cc1ccccc1N(C(=O)c1ccc(C3CCCCC3)cc1)C2 [Example 35] | % | 16 |
| COc1ccc(NC(=O)c2ccc3n2Cc2ccccc2N(C(=O)c2ccc(C4CCCCC4)cc2)C3)cc1 [Example 29] | % | 8 |
| CN1CCC(N(C)C(=O)c2ccc3n2Cc2ccccc2N(C(=O)c2ccc(C4CCCCC4)cc2)C3)C1 (stereo not drawn) [Example 40] | % | -3 |
| CN(CCc1ccncc1)C(=O)c1ccc2n1Cc1ccccc1N(C(=O)c1ccc(C3CCCCC3)cc1)C2 [Example 55] | % | 6 |
| Cc1ccccc1N1CCN(C(=O)c2ccc3n2Cc2ccccc2N(C(=O)c2ccc(C4CCCCC4)cc2)C3)CC1 [Example 27] | % | 9 |

stdin: Returns the measured inhibition at 0.1 µM for the input compound. Input: CN1CCC(N(C)C(=O)c2ccc3n2Cc2ccccc2N(C(=O)c2ccc(C4CCCCC4)cc2)C3)CC1 [Example 39]
stdout: 13

stdin: Record request: inhibition at 0.1 µM value, item CN1CCCC1CCNC(=O)c1ccc2n1Cc1ccccc1N(C(=O)c1ccc(C3CCCCC3)cc1)C2 (stereo not drawn) [Example 38]
stdout: 1

stdin: Need inhibition at 0.1 µM, item CN(C)CCCNC(=O)c1ccc2n1Cc1ccccc1N(C(=O)c1ccc(C3CCCCC3)cc1)C2 [Example 33]
stdout: 14

stdin: I'd like to know its inhibition at 0.1 µM. The compound in question is O=C(NCCN1CCCCC1)c1ccc2n1Cc1ccccc1N(C(=O)c1ccc(C3CCCCC3)cc1)C2 [Example 37]
stdout: 8

stdin: Would you kindly share the measured inhibition at 0.1 µM for CN(Cc1cccnc1)C(=O)c1ccc2n1Cc1ccccc1N(C(=O)c1ccc(C3CCCCC3)cc1)C2 [Example 57] ?
stdout: 4

###

Measured pIC50 on human vasopressin V1a receptor subtype (Homo sapiens) follows.
Sequence (P37288 whole entry): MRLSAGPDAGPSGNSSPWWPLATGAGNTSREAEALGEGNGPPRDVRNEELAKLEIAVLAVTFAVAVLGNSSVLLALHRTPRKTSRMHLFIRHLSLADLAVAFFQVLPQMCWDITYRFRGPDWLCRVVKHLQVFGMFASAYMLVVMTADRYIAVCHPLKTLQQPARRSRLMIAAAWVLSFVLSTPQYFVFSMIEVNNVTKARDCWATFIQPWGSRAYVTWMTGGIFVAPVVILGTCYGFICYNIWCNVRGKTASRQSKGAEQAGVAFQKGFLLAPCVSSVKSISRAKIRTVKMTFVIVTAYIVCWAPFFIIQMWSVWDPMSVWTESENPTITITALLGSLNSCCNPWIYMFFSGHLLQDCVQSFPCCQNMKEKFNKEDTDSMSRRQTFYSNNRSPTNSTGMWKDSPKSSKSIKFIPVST
Reminder that pIC50 means the negative base-10 logarithm of the concentration expressed in mol/L.

| input-smiles | recorded-metric | recorded-result |
| --- | --- | --- |
| CN(C)NC(=O)c1ccc2n1Cc1ccccc1N(C(=O)c1ccc(C3CCCCC3)cc1)C2 | pIC50 | 6.06 |
| CN1CCN(C(=O)c2ccc3n2Cc2ccccc2N(C(=O)c2ccc(C4CCCCC4)cc2)C3)CC1 | pIC50 | 6.69 |
| CN(C)/C=N/C(=O)c1ccc2n1Cc1ccccc1N(C(=O)c1ccc(C3CCCCC3)cc1)C2 | pIC50 | 6.51 |
| O=C(c1ccc2n1Cc1ccccc1N(C(=O)c1ccc(C3CCCCC3)cc1)C2)N1CCC(N2CCCCC2)CC1 | pIC50 | 6.70 |

Then there is this compound:
stdin: Look up pIC50 with human vasopressin V1a receptor subtype (Homo sapiens) for this compound: CC(=O)NNC(=O)c1ccc2n1Cc1ccccc1N(C(=O)c1ccc(C3CCCCC3)cc1)C2
stdout: 6.44

###

Endpoint: IC50. System: human oxytocin receptor (Homo sapiens, UniProt P30559). Items follow.
Sequence (P30559 whole entry): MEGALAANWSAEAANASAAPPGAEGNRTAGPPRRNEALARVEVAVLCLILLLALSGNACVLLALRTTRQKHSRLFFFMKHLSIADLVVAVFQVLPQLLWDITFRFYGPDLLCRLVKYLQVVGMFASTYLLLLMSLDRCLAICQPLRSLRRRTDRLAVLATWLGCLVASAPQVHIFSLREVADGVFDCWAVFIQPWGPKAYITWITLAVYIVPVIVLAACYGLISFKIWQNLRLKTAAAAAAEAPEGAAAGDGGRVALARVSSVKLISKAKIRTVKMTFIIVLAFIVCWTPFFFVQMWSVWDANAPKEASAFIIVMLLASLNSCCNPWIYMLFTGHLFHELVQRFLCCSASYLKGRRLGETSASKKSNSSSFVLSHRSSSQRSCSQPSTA
The reply should read as a number followed by its unit.

| input-smiles | IC50 |
| --- | --- |
| O=C(c1ccc2n1Cc1ccccc1N(C(=O)c1ccc(C3CCCCC3)cc1)C2)N1CCN(c2ccccn2)CC1 | 111 nM |
| NNC(=O)c1ccc2n1Cc1ccccc1N(C(=O)c1ccc(C3CCCCC3)cc1)C2 | 127 nM |
| CC(=O)c1ccc2n1Cc1ccccc1N(C(=O)c1ccc(C3CCCCC3)cc1)C2 | 105 nM |

// below: IC50 requested for another compound
stdin: Provide value of IC50 for this record tested with human oxytocin receptor (Homo sapiens, UniProt P30559): CN(C)/C=N/C(=O)c1ccc2n1Cc1ccccc1N(C(=O)c1ccc(C3CCCCC3)cc1)C2
stdout: 51.4 nM

###

Target: human oxytocin receptor (Homo sapiens)
Test: Oxytocin binding in CHO cell membranes expressing human oxytocin receptors
Details: 100 nM, [3H]oxytocin, read-out: OT % inhibition at 100 nM
Threshold rule: inhibition at 0.1 µM greater than or equal to 40% is label 1; below that, label 0.

| input-smiles | class-name |
| --- | --- |
| CN(CCc1ccncc1)C(=O)c1ccc2n1Cc1ccccc1N(C(=O)c1ccc(C3CCCCC3)cc1)C2 | label 1 |
| CN(C)CCCN(C)C(=O)c1ccc2n1Cc1ccccc1N(C(=O)c1ccc(C3CCCCC3)cc1)C2 | label 1 |
| COc1ccc(NC(=O)c2ccc3n2Cc2ccccc2N(C(=O)c2ccc(C4CCCCC4)cc2)C3)cc1 | label 1 |

stdin: Confirm if inhibition at 0.1 µM reported for the compound CC(C)(C)c1ccc(C(=O)c2ccc3n2Cc2ccccc2N(C(=O)c2ccc(C4CCCCC4)cc2)C3)cc1 is 40% or above.
stdout: label 1

stdin: Please check the record O=C(NCc1cccnc1)c1ccc2n1Cc1ccccc1N(C(=O)c1ccc(C3CCCCC3)cc1)C2 and state if its inhibition at 0.1 µM is at or above 40%.
stdout: label 0

###

Molecular target: human oxytocin receptor (Homo sapiens)
Experiment: Oxytocin binding in CHO cell membranes expressing human oxytocin receptors
Details: 100 nM, [3H]oxytocin, read-out: OT % inhibition at 100 nM
recorded-metric: inhibition at 0.1 µM (%)
The reply should contain only the number, in %.

The examples below pair each entry with its known result.
| input-smiles | tested-target | recorded-metric | value-unit | recorded-result |
| --- | --- | --- | --- | --- |
| CN(C)CCCNC(=O)c1ccc2n1Cc1ccccc1N(C(=O)c1ccc(C3CCCCC3)cc1)C2 | human oxytocin receptor (Homo sapiens) | inhibition at 0.1 µM | % | 66 |
| O=C(NNC(=O)c1ccc2n1Cc1ccccc1N(C(=O)c1ccc(C3CCCCC3)cc1)C2)Nc1ccccc1 | human oxytocin receptor (Homo sapiens) | inhibition at 0.1 µM | % | 16 |
| CN1CCN(C(=O)c2ccc3n2Cc2ccc(C(=O)O)cc2N(C(=O)c2ccc(C4CCCCC4)cc2)C3)CC1 | human oxytocin receptor (Homo sapiens) | inhibition at 0.1 µM | % | -2 |
| CN1CCCN(C(=O)c2ccc3n2Cc2ccccc2N(C(=O)c2ccc(C4CCCCC4)cc2)C3)CC1 | human oxytocin receptor (Homo sapiens) | inhibition at 0.1 µM | % | 94 |
| Cc1ccccc1N1CCN(C(=O)c2ccc3n2Cc2ccccc2N(C(=O)c2ccc(C4CCCCC4)cc2)C3)CC1 | human oxytocin receptor (Homo sapiens) | inhibition at 0.1 µM | % | 44 |
| O=C(c1ccc2n1Cc1ccccc1N(C(=O)c1ccc(C3CCCCC3)cc1)C2)N1CCN(CCN2CCOCC2)CC1 | human oxytocin receptor (Homo sapiens) | inhibition at 0.1 µM | % | 65 |

Field: next molecule
stdin: Return reported inhibition at 0.1 µM; argument: CN(N)C(=O)c1ccc2n1Cc1ccccc1N(C(=O)c1ccc(C3CCCCC3)cc1)C2
stdout: 68

###

Target: human V2 vasopressin receptor subtype (Homo sapiens, UniProt P30518)
Sequence (P30518 whole entry): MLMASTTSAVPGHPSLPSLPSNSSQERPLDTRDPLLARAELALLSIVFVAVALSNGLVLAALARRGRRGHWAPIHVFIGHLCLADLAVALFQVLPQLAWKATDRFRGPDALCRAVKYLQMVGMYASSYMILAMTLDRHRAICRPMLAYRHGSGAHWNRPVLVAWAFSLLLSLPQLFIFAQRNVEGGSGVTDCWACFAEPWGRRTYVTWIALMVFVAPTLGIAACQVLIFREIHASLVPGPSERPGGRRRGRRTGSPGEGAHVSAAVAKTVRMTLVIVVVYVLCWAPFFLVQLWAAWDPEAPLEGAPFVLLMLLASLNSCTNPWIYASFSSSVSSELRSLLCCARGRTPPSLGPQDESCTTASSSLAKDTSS
Test: Vasopressin binding in CHO cell membranes expressing human vasopressin V2 subtype receptors
Details: [3H]arginine vasopressin, value in parentheses
pIC50: −log10 of the molar value.
recorded-metric: pIC50

| compound | pIC50 |
| --- | --- |
| CN(C)NC(=O)c1ccc2n1Cc1ccccc1N(C(=O)c1ccc(C3CCCCC3)cc1)C2 [Example 19] | < 6.00 |

stdin: Request the reported pIC50 associated with CC(=NNC(=O)c1ccc2n1Cc1ccccc1N(C(=O)c1ccc(C3CCCCC3)cc1)C2)N(C)C [Example 9]
stdout: < 6.00

stdin: Recorded pIC50 of CN(C)/C=N/C(=O)c1ccc2n1Cc1ccccc1N(C(=O)c1ccc(C3CCCCC3)cc1)C2 [Example 17] , please.
stdout: 6.32

stdin: Item under review: O=C(c1ccc2n1Cc1ccccc1N(C(=O)c1ccc(C3CCCCC3)cc1)C2)N1CCC(N2CCCCC2)CC1 [Example 26] . Reported pIC50?
stdout: < 6.00

stdin: Report pIC50 for O=C(c1ccc2n1Cc1ccccc1N(C(=O)c1ccc(C3CCCCC3)cc1)C2)N1CCN(c2ncccn2)CC1 [Example 23] please.
stdout: < 6.00

stdin: Item under review: CC(=O)NNC(=O)c1ccc2n1Cc1ccccc1N(C(=O)c1ccc(C3CCCCC3)cc1)C2 [Example 11] . Reported pIC50?
stdout: < 6.00

stdin: Quick check: pIC50 of CC(=O)c1ccc2n1Cc1ccccc1N(C(=O)c1ccc(C3CCCCC3)cc1)C2 [Example 6] ?
stdout: < 6.00

stdin: Which pIC50 reading was recorded for the compound NC(=O)c1ccc2n1Cc1ccccc1N(C(=O)c1ccc(C3CCCCC3)cc1)C2 [Example 16] ?
stdout: < 6.00

stdin: So what's the measured pIC50 for this one? NNC(=O)c1ccc2n1Cc1ccccc1N(C(=O)c1ccc(C3CCCCC3)cc1)C2 [Example 8]
stdout: < 6.00

stdin: # pIC50 lookup, item O=C(c1ccc2n1Cc1ccccc1N(C(=O)c1ccc(C3CCCCC3)cc1)C2)N1CCN(c2ccccn2)CC1 [Example 28]
stdout: < 6.00

Ref: patent US7202239B2
